test: Plasma concentration of acetazolamide (total and free) in glaucoma patients, before/after diflunisal; type: in vivo, human; conditions: 15 patients, baseline before diflunisal; read-out: total acetazolamide plasma level
readout-name: concentration (µM)
Answers are plain numbers, in µM.

Incoming: // concentration lookup, key: CC(=O)Nc1nnc(S(N)(=O)=O)s1 [Acetazolamide]
Outgoing: 19.1

---

Assay: In vitro plasma binding of acetazolamide with graded concentrations of diflunisal (dialysis)
Type: in vitro ADME
Settings: human, 90 μM acetazolamide, diflunisal 600 μm
Protocol: An in vitro study was performed for the effect of graded doses of diflunisal on the plasma binding of acetazolamide. Both drugs were added to plasma of a single non-glaucomatous individual and duplicate dialyses were done. Acetazolamide was analyzed by assay against carbonic anhydrase (Maren, T. H., J. Pharmacol. Exp. Therap.. 130:26 (1960)). […] The solutions were each mixed for 18 hours at 25* and then analyzed and calculated for free and total drug. […]
readout-name: fraction unbound at 18 h, 90 µM

Incoming: // fraction unbound at 18 h, 90 µM lookup, key: CC(=O)Nc1nnc(S(N)(=O)=O)s1 [Acetazolamide]
Outgoing: 0.26
